- method: recombinant barcode read abundance after kanamycin selection (control-corrected) (log10(CPM+1)); higher = more efficient recombination; sequences stand for … in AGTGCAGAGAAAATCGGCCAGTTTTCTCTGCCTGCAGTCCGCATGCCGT…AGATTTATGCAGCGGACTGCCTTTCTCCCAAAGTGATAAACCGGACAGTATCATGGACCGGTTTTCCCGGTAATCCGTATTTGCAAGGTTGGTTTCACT; site = the 11-nt target
readout_type: recombinant barcode read abundance (log10)
Numbers only.

entry_sequence | observed_result
TTCGACTCTTGGGTTCTAACCTGTTGCTA (site TTCGACTCTTA) | 1.07
GATACGGCTTGGGTTCTAACCTGTTGCCT (site GATACGACTAG) | 0.169
TCGAACCCTTGGGTTCTAACCTGTTGCGG (site TCGAACCCTCC) | 0.851
ACCTTACCTTGGGTTCTAACCTGTTGCGG (site ACCTTACCTAC) | 0.37
TGCTTACCTTGGGTTCTAACCTGTTGCCT (site TGCTTACCTAG) | 0.282
ACGTTGTCTTGGGTTCTAACCTGTTGCCT (site ACTTTGTCTAG) | 0.0891
AAACTAACTTGGGTTCTAACCTGTTGCCT (site AAACTAACTAG) | 1.31
CTATTGTCTTGGGTTCTAACCTGTTGCGG (site CTATTGTCTCC) | 1.35
TAGTAGTCTTGGGTTCTAACCTGTTGCCT (site TAGTAGTCTAC) | 0.0503
CTATGTGCTTGGGTTCTAACCTGTTGCGT (site CTATGTGCTAC) | 1.54

Please look at the items below and tell me recombinant barcode read abundance (log10) for each one, in order.
1. CCAGTGACTTGGGTTCTAACCTGTTGCCT (site CCAGTAACTAG)
2. CTAGACTCTTGGGTTCTAACCTGTTGCAT (site CTAGACTCTAT)
3. TTACAATCTTGGGTTCTAACCTGTTGCCT (site TTACAATCTAG)
4. ATGAGGACTTGGGTTCTAACCTGTTGCCT (site GTGAGGACTAG)

0.931
2.88
0.764
0.12

Please look at the items below and tell me recombinant barcode read abundance (log10) for each one, in order.
1. AACTAATCTTGGGTTCTAACCTGTTGCCT (site AACTTATCTAG)
2. ACGGCTCCTTGGGTTCTAACCTGTTGCTG (site ACGCCTCCTCA)
3. AGCAGGTCTTGGGTTCTAACCTGTTGCCT (site ACCAGGTCTAG)
4. ATGTACACTTGGGTTCTAACCTGTTGCCT (site ATGGATACTAG)
5. ATTGGTTCTTGGGTTCTAACCTGTTGCCT (site ATTGGCTCTAG)
6. AAGTCCTCTTGGGTTCTAACCTGTTGCTT (site AAGGCCTCTAA)

1: 0.0117; 2: 0.116; 3: 0.234; 4: 0.0684; 5: 0.104; 6: 0.153

Please look at the items below and tell me recombinant barcode read abundance (log10) for each one, in order.
1. TGCTTACCTTGGGTTCTAACCTGTTGCCT (site GGCTTACCTAG)
2. GAAGTACCTTGGGTTCTAACCTGTTGCCT (site TAAGTACCTAG)

[0.185, 0.873]

Please look at the items below and tell me recombinant barcode read abundance (log10) for each one, in order.
1. GCGTCTCCTTGGGTTCTAACCTGTTGCAT (site GCGCCTCCTAT)
2. CTGGTGTCTTGGGTTCTAACCTGTTGCCA (site CTGCTGTCTTG)
3. GTATCTCCTTGGGTTCTAACCTGTTGCTT (site GTATCTCCTAA)

1. 0.012
2. 0.0405
3. 0.321

====

- method: recombinant barcode read abundance after kanamycin selection (control-corrected) (log10(CPM+1)); higher = more efficient recombination; sequences stand for … in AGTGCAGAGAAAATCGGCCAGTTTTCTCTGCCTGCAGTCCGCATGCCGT…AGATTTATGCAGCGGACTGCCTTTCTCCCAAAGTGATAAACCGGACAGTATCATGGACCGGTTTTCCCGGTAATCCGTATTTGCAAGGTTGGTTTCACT; site = the 11-nt target
Could you please report measured recombinant barcode read abundance (log10) for the items listed next?
Give bare numbers.

entry_sequence | observed_result
TGCGTCGCTTGGGTTCTAACCTGTTGCCT (site AGCGTCGCTAG) | 0.149

Please look at the items below and tell me recombinant barcode read abundance (log10) for each one, in order.
1. ACGTTGTCTTGGGTTCTAACCTGTTGCCT (site ACCTTGTCTAG)
2. GAGTCGCCTTGGGTTCTAACCTGTTGCCT (site GAGTCGCCTAG)
3. CGAGGTACTTGGGTTCTAACCTGTTGCAT (site CGAGGTACTAT)
4. GACACTGCTTGGGTTCTAACCTGTTGCCT (site GACACTGCTAG)
5. CGGCCTACTTGGGTTCTAACCTGTTGCTT (site CGGCTTCCTAA)
6. CTTAGGGCTTGGGTTCTAACCTGTTGCGG (site CTTAGGGCTCC)
7. TAACCTACTTGGGTTCTAACCTGTTGCCT (site TAACCTACTAG)

0.0624
0.263
1.87
0.403
0.137
3.02
0.442

====

- method: recombinant barcode read abundance after kanamycin selection (control-corrected) (log10(CPM+1)); higher = more efficient recombination; sequences stand for … in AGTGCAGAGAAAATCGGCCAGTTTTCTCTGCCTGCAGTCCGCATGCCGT…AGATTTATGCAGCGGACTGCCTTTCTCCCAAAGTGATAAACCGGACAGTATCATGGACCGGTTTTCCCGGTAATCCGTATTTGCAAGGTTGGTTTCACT; site = the 11-nt target
Could you please report measured recombinant barcode read abundance (log10) for the items listed next?
Numbers only.

entry_sequence | observed_result
AATGGGTCTTGGGTTCTAACCTGTTGCTT (site CCACTAGCTCT) | 0.0323
ATCGGCCCTTGGGTTCTAACCTGTTGCTG (site ATCGGCCCTCA) | 2.07
CGCTTGACTTGGGTTCTAACCTGTTGCCT (site CGCTAGACTAG) | 0.0413
GCCCGGGCTTGGGTTCTAACCTGTTGCCG (site GCCAGGGCTCG) | 0.144

Please look at the items below and tell me recombinant barcode read abundance (log10) for each one, in order.
1. AATTGGCCTTGGGTTCTAACCTGTTGCGT (site AATAGGCCTAC)
2. TCACATGCTTGGGTTCTAACCTGTTGCCT (site TCACATGCTAG)
3. TCTGTATCTTGGGTTCTAACCTGTTGCCT (site CCTGTATCTAG)
4. GATAGGCCTTGGGTTCTAACCTGTTGCCT (site GATAGGCCTAG)

0.425
1.28
0.0921
0.101

====

- method: recombinant UMI read abundance after kanamycin selection (control-corrected) (log10(CPM+1)); higher = more efficient recombination; extreme values may be limits of the assay; sequences stand for … in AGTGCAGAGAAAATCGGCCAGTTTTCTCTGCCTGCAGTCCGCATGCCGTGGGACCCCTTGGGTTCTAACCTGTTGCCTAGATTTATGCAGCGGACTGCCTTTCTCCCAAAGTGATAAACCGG…AGGTTGGTTTCACT; site = the 11-nt donor
Could you please report measured recombinant UMI read abundance (log10) for the items listed next?
Give bare numbers.

Please review the following examples before continuing.
entry_sequence | recombinant UMI read abundance (log10)
TAGATAGCATGGACCGGTTTTCCCGGTAATCCGTATTTGAA (site TAGCTAGCTTT) | 0.0111
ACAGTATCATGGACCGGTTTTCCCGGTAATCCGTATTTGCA (site AGAGTATCTTT) | 0.0042
TCCGCAGCATGGACCGGTTTTCCCGGTAATCCGTATTTGAA (site TCCGCAGCTTT) | 0.0198

Now for another entry.
Please report the recorded recombinant UMI read abundance (log10) for CGACGACCATGGACCGGTTTTCCCGGTAATCCGTATTTGGG (site CGATGACCTCC) .
0.0338

====

- method: recombinant UMI read abundance after kanamycin selection (control-corrected) (log10(CPM+1)); higher = more efficient recombination; extreme values may be limits of the assay; sequences stand for … in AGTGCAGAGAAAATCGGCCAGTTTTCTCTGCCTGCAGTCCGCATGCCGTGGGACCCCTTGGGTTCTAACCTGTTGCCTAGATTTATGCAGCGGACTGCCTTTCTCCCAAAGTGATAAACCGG…AGGTTGGTTTCACT; site = the 11-nt donor
Kindly note that classification relies on recombinant UMI read abundance (log10) with these boundaries: LOW (below 0.02), MID (0.02 to below 1), HIGH (1 or more)

Worked cases, answers included:
entry_sequence | category_label
TCAGAGCCATGGACCGGTTTTCCCGGTAATCCGTATTTGCG (site TCAGAGTCTCG) | HIGH
CAATCCTCATGGACCGGTTTTCCCGGTAATCCGTATTTGCC (site CACTCCTCTGG) | HIGH
GTTCGAGCATGGACCGGTTTTCCCGGTAATCCGTATTTGCA (site GTTCGAGCTTA) | HIGH
CCGGGCCCATGGACCGGTTTTCCCGGTAATCCGTATTTGTA (site CCGGGCCCTTA) | MID

Category of CCGTTTACATGGACCGGTTTTCCCGGTAATCCGTATTTGCT (site CCGTTTCCTAG) , please.
LOW

Category of GGCAATACATGGACCGGTTTTCCCGGTAATCCGTATTTGAA (site GGCAATTCTTT) , please.
LOW

Category of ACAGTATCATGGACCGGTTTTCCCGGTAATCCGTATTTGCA (site ATAGTATCTCG) , please.
MID

Category of CTGCTTCCATGGACCGGTTTTCCCGGTAATCCGTATTTGCT (site CTGCTACCTAG) , please.
LOW

Category of TGCTAGGCATGGACCGGTTTTCCCGGTAATCCGTATTTGGC (site TGCTAGGCTAC) , please.
MID

Category of AGAATTTCATGGACCGGTTTTCCCGGTAATCCGTATTTGGG (site AGAATTTCTCC) , please.
MID

Category of AGCCTTTCATGGACCGGTTTTCCCGGTAATCCGTATTTGAC (site ACCCTTTCTGT) , please.
LOW
